Where these numbers come from: patent US6576662B2

recorded-endpoint: melting point (°C)

A. C=C1CCC2[C@]3(C)COC(C)(C)OC3CC[C@]2(C)[C@H]1CC(Nc1cccc(C)c1C)C1=CCOC1=O (stereo partly drawn) [Example 38]
B. C=C1CCC2[C@]3(C)COC(C)(C)OC3CC[C@]2(C)[C@H]1CC(NC(Cc1ccccc1)C(=O)OC)C1=CCOC1=O (stereo partly drawn) [Example 20]
# return whichever of A and B has the smaller melting point Please indicate the selected item by its label.
B

----------
recorded-endpoint: melting point (°C)

Below are worked cases with known answers.
C=C1CCC2[C@](C)(CO)[C@H](O)CC[C@]2(C)[C@H]1CC(SCC)C1=CCOC1=O (stereo partly shown) [Example 64, 14-Deoxy-12-ethylthio andrographolide] : 160
C=C1CCC2[C@](C)(CO)[C@H](O)CC[C@]2(C)[C@H]1CC(C1=CCOC1=O)n1ccc(=O)[nH]c1=O (stereo partly shown) [Example 50, 14-Deoxy-12-(N^1-uracil)andrographolide] : 164
CCC(=O)OC[C@@]1(C)C2CC[C@]3(CO3)[C@H](CC(OC(=O)CNC(=O)OC(C)(C)C)C3=CCOC3=O)[C@@]2(C)CC[C@H]1OC(=O)CC (stereo partly shown) : 80
C=C1CCC2[C@]3(C)COC(c4ccccc4)OC3CC[C@]2(C)[C@H]1CC(Nc1cccc(C)c1C)C1=CCOC1=O (stereo partly shown) : 118
C=C1CCC2[C@](C)(CO)[C@H](O)CC[C@]2(C)[C@H]1CC([Se]c1ccccc1)C1=CCOC1=O (stereo partly shown) : 186

a. C=C1CCC2[C@](C)(CO)[C@H](O)CC[C@]2(C)[C@H]1CC(C1=CCOC1=O)n1cc(Br)c(=O)[nH]c1=O (stereo partly shown)
b. C=C1CCC2[C@](C)(CO)C(O)CC[C@]2(C)[C@H]1CC(NC(C(=O)OC)c1ccccc1)C1=CCOC1=O (stereo partly shown)
Quick check, higher melting point between a and b ? Please indicate the selected item by its label.
a
(a: 185 °C, b: 68 °C)
